target: MAGI1_5, Q96QZ7; test: holdup assay; parameters: key: below the threshold = too weak to quantify, mostly under pKd 3.1 to 4; settings: plain residues with an end cap or a label only (N-terminal biotin on a linker: ttds)
Sequence (Q96QZ7 986-1098): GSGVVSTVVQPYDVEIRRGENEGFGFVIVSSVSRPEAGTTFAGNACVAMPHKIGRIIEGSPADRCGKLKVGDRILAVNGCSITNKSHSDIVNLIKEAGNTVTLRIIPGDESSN
reportedProperty: pKd

| binder | reportedResult |
| --- | --- |
| RLQRRRETQV [HPV18-E6, P06463] | below the threshold |
| RHTTSTETAV [HPV30-E6, P36809] | 5.02 |
| RPLPRKVSQL [DOCK4, Q8N1I0] | below the threshold |
